Cited source for all entries: PubChem BioAssay (NCI)

# System: NCI-H226 lung
# assay: NCI-60 one-dose screen, 48 h
# protocol.conditions: 10 µM unless noted
About 83,000 compounds went through this panel and 20% of them were active in at least one assay; those are over-represented in the sample as a whole. Calls of active or inactive are those of the source. How the source made its calls: active means growth percent below 10; inactive means the rest.
// one of active, inactive, no free text

Worked cases, answers included:
[[record]]
molecule = "Oc1c(Cl)cc(Cl)c2ccc(CN3CCCCC3)nc12"
group = "inactive"

[[record]]
molecule = "CCCC(=O)NC(c1cccc(N(C)C)c1)c1cc(C)c2cccnc2c1O (stereo not given)"
group = "inactive"

[[record]]
molecule = "COc1ccc(/C=N/NC(=O)c2[nH]c3ccc(Br)cc3c2-c2ccccc2)o1"
group = "inactive"

[[record]]
molecule = "Clc1ccc2c(NCCCn3ccnc3)c3oc4ccc(Cl)cc4c3nc2c1"
group = "inactive"

[[record]]
molecule = "C=CCn1c(SCC(=O)c2ccccc2)nnc1-c1c[nH]c2ccccc12"
group = "inactive"

[[record]]
molecule = "CCOC(=O)c1c(Nc2ccccc2)nn2c(-c3ccco3)c(C#N)cnc12"
group = "inactive"


Status in this test for C=CCn1c(SCC(=O)c2ccc(Br)cc2)nnc1-c1c[nH]c2ccccc12 ? inactive

# repeat for CCOC(=O)c1c(Nc2ccccc2)nn2c(N)c(C#N)c(-c3ccc(F)cc3)nc12 inactive

# repeat for Clc1ccc(-c2cn3cc(Cc4ccc(Cl)c(Cl)c4)sc3n2)cc1 inactive

NS(=O)(=O)c1ccc(Nc2nc(SCC(=O)c3ccc(Cl)cc3)nc3ccccc23)cc1 ? inactive

Now give it for C=C1CC[C@H]2[C@@](C)(CCC3OC(c4ccc(OCc5cn(C6CC(OC(C)=O)C(OC(C)=O)C(COC(C)=O)O6)nn5)cc4)OC[C@]32C)[C@@H]1/C=C/C1=CCOC1=O (stereo not given in full) too. inactive

Would you kindly repeat that for CCN1CCN(S(=O)(=O)c2oc(-c3ccc(Cl)cc3)nc2C#N)CC1 ? inactive

Would you kindly repeat that for Cc1ccccc1NC(=O)/C=C/c1ccc(OCCOc2ccc3c(C)cc(=O)oc3c2)cc1 ? inactive

Also need N[C@@H](Cc1cn(-c2ccnc3ccccc23)nn1)C(=O)O , thanks. inactive

Moving on to COc1cc(/C=C/C(=O)c2ccccc2)ccc1Oc1nc(NCCO)nc(N2CCOCC2)n1 inactive
